- experimentalDetails: Selectivity index, ratio of IC50 for C57BL/6 mouse peritoneal macrophages to MIC for Mycobacterium tuberculosis H37Rv
readoutKind: Selectivity Index
In your answer, state the number alone without any accompanying words.

structure: CCOC(=O)c1[nH]c2ccccc2c1CNNC(=O)c1cc[n+]([O-])cc1
Selectivity Index: 8

structure: O=C(N/N=C\c1c[nH]c2ccccc12)c1ccncc1
Selectivity Index: 400

structure: CCOC(=O)c1[nH]c2ccccc2c1/C=N\NC(=O)c1ccncc1
Selectivity Index: 106.6

What the record says about NNC(=O)c1cc[n+]([O-])cc1 : Selectivity Index is 11.5

Recorded Selectivity Index (compound Cc1ccc2[nH]c(C(=O)O)c(/C=N\NC(=O)c3ccncc3)c2c1 ): 250

Sure, the documented Selectivity Index for CCOC(=O)c1[nH]c2ccc(C)cc2c1/C=N\NC(=O)c1ccncc1 is 300

Recorded Selectivity Index (compound O=C(NNCc1c[nH]c2ccccc12)c1ccncc1 ): 150

Reported Selectivity Index for O=C(N/N=C\c1c[nH]c2ccccc12)c1cc[n+]([O-])cc1 was 30

Looking up CCOC(=O)c1[nH]c2ccccc2c1/C=N\NC(=O)c1cc[n+]([O-])cc1 , I see its Selectivity Index listed as 9

# compound CC(=O)n1cc(NNC(=O)c2ccncc2)c2ccccc21 ; its Selectivity Index = 250
